# Test system: soybean (Glycine max)
# TEST METHOD NOTES: Test C preemergence
# Assay type: in vivo
# CONDITION SET: 250 g ai/ha, scale 0 to 100, 0 no effect, 100 complete control
Known Plant response rating, Soybean of a selection of molecules
QUANTITY MEASURED: Plant response rating, Soybean

| MOLECULE | QUANTITY MEASURED | DATA VALUE |
| --- | --- | --- |
| CN1C[C@H](c2ccc(F)c(F)c2)[C@@H](C(=O)Nc2cccc(F)c2F)C1=O | Plant response rating, Soybean | 20 |
| CN1CC(c2ccc(C(F)(F)F)c(F)c2)C(C(=O)Nc2ccccc2S(C)(=O)=O)C1=O (stereo not drawn) | Plant response rating, Soybean | 20 |
| Cc1cccc(C2CN(C)C(=O)C2C(=O)Nc2cccc(F)c2F)c1 (stereo not drawn) | Plant response rating, Soybean | 0 |
| Cc1ccc(C2CN(C)C(=O)C2C(=O)Nc2cccc(F)c2F)cc1F (stereo not drawn) | Plant response rating, Soybean | 0 |
| CN1CC(c2ccc(F)c(C(F)(F)F)c2)C(C(=O)Nc2cccc(F)c2F)C1=O (stereo not drawn) | Plant response rating, Soybean | 0 |
| O=C1NCC(c2cccc(OC(F)(F)C(F)F)c2)C1C(=O)Nc1ccccc1F (racemic) | Plant response rating, Soybean | 0 |

* * *

# System: johnsongrass (Sorghum halepense)
# TEST METHOD NOTES: Test C preemergence
# Type: in vivo
# CONDITION SET: 62 g ai/ha, scale 0 to 100, 0 no effect, 100 complete control
Known Plant response rating, Johnsongrass of a selection of molecules
QUANTITY MEASURED: Plant response rating, Johnsongrass

| MOLECULE | QUANTITY MEASURED | DATA VALUE |
| --- | --- | --- |
| Cc1cccc(C2CN(C)C(=O)C2C(=O)Nc2cccc(F)c2F)c1 (stereo not shown) | Plant response rating, Johnsongrass | 80 |
| O=C1NCC(c2cc(F)cc(Cl)c2)C1C(=O)Nc1cccc(F)c1F (stereo not shown) | Plant response rating, Johnsongrass | 55 |
| Cc1ccc(C2CN(C)C(=O)C2C(=O)Nc2cccc(F)c2F)cc1 (stereo not shown) | Plant response rating, Johnsongrass | 70 |
| CN1CC(c2cccc(C(F)(F)F)c2)C(C(=O)Nc2ccccc2S(C)(=O)=O)C1=O (stereo not shown) | Plant response rating, Johnsongrass | 70 |

* * *

# System: wheat (Triticum aestivum)
# TEST METHOD NOTES: Test A postemergence
# Format: in vivo
# CONDITION SET: 125 g ai/ha, postemergence; visual injury rating on 0 to 100 scale (0 no effect, 100 complete control), approx. 10 d
Known Wheat plant response rating of a selection of compounds

| COMPOUND | Wheat plant response rating |
| --- | --- |
| Cc1ccc(C2CN(C)C(=O)C2C(=O)Nc2cccc(F)c2F)cc1F (stereo not shown) [Compound 464] | 70 |
| COc1cccc(C2CNC(=O)C2C(=O)Nc2cccc(F)c2F)c1 (racemic) [Compound 383] | 0 |
| O=C(Nc1cccc(F)c1F)C1C(=O)N(CC=CCl)CC1c1cccc(C(F)(F)F)c1 (stereo not shown) [Compound 485] | 0 |
| O=C1NCC(c2ccc(F)c(F)c2)C1C(=O)Nc1ccc(F)cc1Cl (stereo not shown) [Compound 411] | 0 |
| COC(=O)c1ccccc1NC(=O)C1C(=O)NCC1c1ccc(F)c(F)c1 (stereo not shown) [Compound 417] | 0 |
| Cc1cc(C2CN(C)C(=O)C2C(=O)Nc2ccccc2S(C)(=O)=O)ccc1F (stereo not shown) [Compound 405] | 60 |
| O=C1NCC(c2cccc(OC(F)(F)C(F)F)c2)C1C(=O)Nc1ccccc1C(F)F (stereo not shown) [Compound 391] | 0 |
